ASSAYED_TARGET: EGFR L858R/C797S (Homo sapiens, UniProt P00533, C797S/L858R)
Sequence (P00533 25-1210 C797S/L858R): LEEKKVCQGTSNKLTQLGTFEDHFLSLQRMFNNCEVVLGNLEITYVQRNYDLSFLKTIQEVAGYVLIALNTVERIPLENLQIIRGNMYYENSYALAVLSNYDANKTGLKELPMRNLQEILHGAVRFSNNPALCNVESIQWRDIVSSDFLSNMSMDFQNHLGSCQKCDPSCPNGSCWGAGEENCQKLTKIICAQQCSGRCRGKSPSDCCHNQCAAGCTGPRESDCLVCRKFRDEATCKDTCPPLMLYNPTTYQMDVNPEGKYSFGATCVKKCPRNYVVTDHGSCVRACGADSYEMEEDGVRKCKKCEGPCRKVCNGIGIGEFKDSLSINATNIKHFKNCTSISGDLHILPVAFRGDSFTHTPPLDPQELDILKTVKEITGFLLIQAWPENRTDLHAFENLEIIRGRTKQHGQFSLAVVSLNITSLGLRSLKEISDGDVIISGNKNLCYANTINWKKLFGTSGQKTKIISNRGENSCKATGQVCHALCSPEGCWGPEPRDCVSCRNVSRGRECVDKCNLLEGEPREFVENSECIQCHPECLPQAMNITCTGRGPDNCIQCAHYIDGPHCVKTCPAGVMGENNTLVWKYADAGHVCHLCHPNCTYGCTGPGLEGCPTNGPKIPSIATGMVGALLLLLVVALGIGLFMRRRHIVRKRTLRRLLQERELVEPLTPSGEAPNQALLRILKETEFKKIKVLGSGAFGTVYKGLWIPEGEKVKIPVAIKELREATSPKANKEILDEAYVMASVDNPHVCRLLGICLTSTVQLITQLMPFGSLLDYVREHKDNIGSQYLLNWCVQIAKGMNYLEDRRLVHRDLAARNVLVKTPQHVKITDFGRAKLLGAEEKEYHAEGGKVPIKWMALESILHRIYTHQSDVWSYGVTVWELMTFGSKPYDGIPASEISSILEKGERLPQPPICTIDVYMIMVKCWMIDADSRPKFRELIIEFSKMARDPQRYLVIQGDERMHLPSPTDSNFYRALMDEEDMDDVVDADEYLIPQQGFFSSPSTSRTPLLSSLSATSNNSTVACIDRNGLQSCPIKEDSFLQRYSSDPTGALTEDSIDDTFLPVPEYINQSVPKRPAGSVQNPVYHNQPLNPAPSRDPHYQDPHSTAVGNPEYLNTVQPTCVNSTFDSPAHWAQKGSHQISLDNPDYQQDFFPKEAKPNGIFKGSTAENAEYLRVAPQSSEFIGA
MEASUREMENT_PROTOCOL: Biochemical EGFR kinase inhibition assay (Lance Ultra TR-FRET), double mutant L858R/C797S
CONDITION: IC50 L858R/C797S (nM), 100 μM ATP
QUANTITY_NAME: IC50

1. CN1CCN(Cc2ccc(C#Cc3cnc(Nc4ccnc(-c5cnn(S(=O)(=O)C6CC6)c5)n4)cc3N3CCC(C)(CO)CC3)cn2)CC1 [Example 279] | 0.6 nM
2. CC1(CO)CCN(c2cc(Nc3ccnc(-c4cnn(S(=O)(=O)C5CC5)c4)n3)ncc2C#Cc2cnn3c2CNCC3)CC1 [Example 149] | 3.4 nM
3. O=S(=O)(C1CC1)n1cc(-c2nccc(Nc3cc(N[C@H]4CC[C@@H](O)CC4)c(C#Cc4cnn(CCF)c4)cn3)n2)cn1 [Example 42] | 11.5 nM
4. Cn1cc(C#Cc2cnc(Nc3ccnc(-c4cnn(S(=O)(=O)C5CC5)c4)n3)cc2N2CCC(=O)CC2)cn1 [Example 7] | 143 nM
5. CC1(CO)CCN(c2cc(Nc3ccnc(-c4cnn(S(=O)(=O)C5CC5)c4)n3)ncc2C#CCC(F)(F)F)CC1 [Example 275] | 118 nM
6. O=S(=O)(C1CC1)n1cc(-c2nccc(Nc3cc(N[C@H]4CC[C@@H](O)CC4)c(C#Cc4cnn(C5CCOCC5)c4)cn3)n2)cn1 [Example 94] | 30.5 nM
7. O=S(=O)(C1CC1)n1cc(-c2nccc(Nc3cc(N4C[C@@H]5[C@@H](CO)[C@@H]5C4)c(C#Cc4cnn(C(F)(F)F)c4)cn3)n2)cn1 [Example 331] | 9130 nM
8. CC(C)(CO)CNc1cc(Nc2ccnc(-c3cnn(S(=O)(=O)C4CC4)c3)n2)ncc1C#Cc1cnn(CCF)c1 [Example 40] | 278 nM
9. O=S(=O)(C1CC1)n1cc(-c2nccc(Nc3cc(N4CCCC(CO)C4)c(C#Cc4cnn(C5CCOCC5)c4)cn3)n2)cn1 (stereo not shown) [Example 100] | 73.9 nM
10. C#Cc1cnc(Nc2ccnc(-c3cnn(S(=O)(=O)C4CC4)c3)n2)cc1N1CCC(C)(CO)CC1 [Example 247] | 42.3 nM
11. CN(C)CCNC1CCN(c2cc(Nc3ccnc(-c4cnn(S(=O)(=O)C5CC5)c4)n3)ncc2C#Cc2cnn(C3CCOCC3)c2)CC1 [Example 138] | 8.7 nM
12. CN(C)CCC1CCN(c2cc(Nc3ccnc(-c4cnn(S(=O)(=O)C5CC5)c4)n3)ncc2C#CC2CCO[C@H]2C(F)(F)F)CC1 (stereo partly shown) [Example 419] | 97.5 nM
13. Cn1cc(C#Cc2cnc(Nc3ccnc(-c4cnn(S(=O)(=O)C5CC5)c4)n3)cc2N2CC3(CCNCC3)C2)cn1 [Example 155] | 309 nM

---

ASSAYED_TARGET: EGFR Del19/T790M/C797S (Homo sapiens, UniProt P00533, C797S/DEL746-750/T790M)
Sequence (P00533 with tags, fused parts or gaps DEL746-750/T790M/C797S): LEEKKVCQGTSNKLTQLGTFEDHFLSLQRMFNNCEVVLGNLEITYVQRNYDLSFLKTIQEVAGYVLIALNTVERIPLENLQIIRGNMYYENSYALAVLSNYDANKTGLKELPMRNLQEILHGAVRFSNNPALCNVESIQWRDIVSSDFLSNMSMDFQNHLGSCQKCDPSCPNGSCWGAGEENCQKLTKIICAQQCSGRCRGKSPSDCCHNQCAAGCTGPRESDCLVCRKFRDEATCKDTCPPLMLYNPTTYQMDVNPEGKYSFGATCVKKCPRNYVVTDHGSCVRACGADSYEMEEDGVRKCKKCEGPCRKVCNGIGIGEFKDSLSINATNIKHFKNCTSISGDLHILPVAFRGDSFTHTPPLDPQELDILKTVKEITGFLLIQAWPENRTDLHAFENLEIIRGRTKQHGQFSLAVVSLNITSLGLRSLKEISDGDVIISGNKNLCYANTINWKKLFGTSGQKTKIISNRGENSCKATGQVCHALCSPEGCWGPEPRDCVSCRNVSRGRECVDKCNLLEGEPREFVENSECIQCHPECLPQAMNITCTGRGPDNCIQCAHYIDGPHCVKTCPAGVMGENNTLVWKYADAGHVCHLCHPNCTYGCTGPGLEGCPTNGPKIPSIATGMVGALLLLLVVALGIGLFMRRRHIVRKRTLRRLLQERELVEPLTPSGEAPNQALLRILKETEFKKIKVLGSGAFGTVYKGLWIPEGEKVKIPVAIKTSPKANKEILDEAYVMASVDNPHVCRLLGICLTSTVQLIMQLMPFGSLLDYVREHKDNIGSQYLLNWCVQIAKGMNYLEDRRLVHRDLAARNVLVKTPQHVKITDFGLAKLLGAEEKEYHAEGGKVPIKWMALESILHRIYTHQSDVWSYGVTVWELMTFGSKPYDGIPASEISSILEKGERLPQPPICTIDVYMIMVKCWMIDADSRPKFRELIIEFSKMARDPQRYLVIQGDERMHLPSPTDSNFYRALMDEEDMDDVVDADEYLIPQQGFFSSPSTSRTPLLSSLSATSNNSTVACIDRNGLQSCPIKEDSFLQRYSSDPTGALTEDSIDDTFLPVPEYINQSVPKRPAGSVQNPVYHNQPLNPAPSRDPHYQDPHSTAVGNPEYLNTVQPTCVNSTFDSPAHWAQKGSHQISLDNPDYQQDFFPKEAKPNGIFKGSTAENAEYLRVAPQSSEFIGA
MEASUREMENT_PROTOCOL: Biochemical EGFR kinase inhibition assay (Lance Ultra TR-FRET), triple mutant del19/T790M/C797S
CONDITION: ATP at Km; read-out: IC50 Del19/T790M/C797S (nM), Km ATP
Each record here notes measured log10 IC50.
QUANTITY_NAME: log10 IC50 (log10 of the value in nM)

1) CN(C)CC1(C)CCN(c2cc(Nc3ccnc(-c4cnn(S(=O)(=O)C5CC5)c4)n3)ncc2C#Cc2cnn(C)c2)CC1 | -1.00
2) O=S(=O)(C1CC1)n1cc(-c2nccc(Nc3cc(N[C@H]4CC[C@@H](O)CC4)c(C#Cc4ccc(NCCN5CCOCC5)cc4)cn3)n2)cn1 | 0.66
3) CN1CCN(Cc2ccc(C#Cc3cnc(Nc4ccnc(-c5cnn(S(=O)(=O)C6CC6)c5)n4)cc3N3CCC(C)(CO)CC3)cc2)CC1 | -0.15
4) O=S(=O)(C1CC1)n1cc(-c2nccc(Nc3cc(NC[C@H]4CC[C@@H](O)C4)c(C#Cc4cnn(C(F)F)c4)cn3)n2)cn1 | 0.00
5) O=S(=O)(C1CC1)n1cc(-c2nccc(Nc3cc(N[C@H]4CC[C@@H](CO)CC4)c(C#Cc4cnn(CC(F)F)c4)cn3)n2)cn1 | -0.52
6) O=S(=O)(C1CC1)n1cc(-c2nccc(Nc3cc(NC4CCC(CO)CC4)c(C#Cc4cnn(C5CC5(F)F)c4)cn3)n2)cn1 (stereo not shown) | 0.34
7) CC1(CO)CCN(c2cc(Nc3ccnc(-c4cnn(S(=O)(=O)C5CC5)c4)n3)ncc2C#Cc2ccc(CN3CCOCC3)cn2)CC1 | -0.40
8) CC1(CO)CCN(c2cc(Nc3ccnc(-c4cnn(S(=O)(=O)C5CC5)c4)n3)ncc2C#Cc2cnn(C(F)F)c2)CC1 | 0.11
9) CN(C)Cc1cccc(C#Cc2cnc(Nc3ccnc(-c4cnn(S(=O)(=O)C5CC5)c4)n3)cc2N2CCC(C)(CO)CC2)c1 | 0.11
10) O=S(=O)(C1CC1)n1cc(-c2nccc(Nc3cc(NC4CCC(O)CC4)c(C#CC4CCOC4)cn3)n2)cn1 (stereo not shown) | -0.40
11) O=S(=O)(C1CC1)n1cc(-c2nccc(Nc3cc(NC[C@H]4CC[C@H](O)CC4)c(C#Cc4cnn(C(F)F)c4)cn3)n2)cn1 | 1.17
12) CC1(CO)CCN(c2cc(Nc3ccnc(-c4cnn(S(=O)(=O)C5CC5)c4)n3)ncc2C#Cc2cccc(C(=O)N3CCOCC3)c2)CC1 | 0.08
13) CC1(CO)CCN(c2cc(Nc3ccnc(-c4cnn(S(=O)(=O)C5CC5)c4)n3)ncc2C#Cc2csc(CN3CCOCC3)n2)CC1 | -0.15
14) CCc1cnc(C#Cc2cnc(Nc3ccnc(-c4cnn(S(=O)(=O)C5CC5)c4)n3)cc2N[C@@H]2CCC[C@H](O)C2)s1 | 1.04
15) CC1(CO)CCN(c2cc(Nc3ccnc(-c4cnn(S(=O)(=O)C5CC5)c4)n3)ncc2C#CCCN2CCOCC2)CC1 | -0.10
16) Nc1cccc(C#Cc2cnc(Nc3ccnc(-c4cnn(S(=O)(=O)C5CC5)c4)n3)cc2N[C@@H]2CCC[C@H](O)C2)c1 | 0.85
17) O=S(=O)(C1CC1)n1cc(-c2nccc(Nc3cc(N[C@H]4CCC[C@H](O)C4)c(C#Cc4ccc(CN5CCOCC5)cc4)cn3)n2)cn1 | 0.74
18) CC1(CO)CCN(c2cc(Nc3ccnc(-c4cnn(S(=O)(=O)C5CC5)c4)n3)ncc2C#Cc2cccc(C(=O)N3CCOCC3)n2)CC1 | -0.10
19) CC1(CO)CCN(c2cc(Nc3ccnc(-c4cnn(S(=O)(=O)C5CC5)c4)n3)ncc2C#Cc2cn(CC(F)F)c3ccncc23)CC1 | 0.49
20) CN(C)CC1(C)CCN(c2cc(Nc3ccnc(-c4cnn(S(=O)(=O)C5CC5)c4)n3)ncc2C#Cc2cnn(C3CC3)c2)CC1 | -0.70
21) C=CC#Cc1cnc(Nc2ccnc(-c3cnn(S(=O)(=O)C4CC4)c3)n2)cc1N1CCC(C)(CO)CC1 | -0.22
22) CC1(CO)CCN(c2cc(Nc3ccnc(-c4cnn(S(=O)(=O)C5CC5)c4)n3)ncc2C#CC2(O)CCOCC2)CC1 | -0.52
23) CN(C)Cc1ccc(C#Cc2cnc(Nc3ccnc(-c4cnn(S(=O)(=O)C5CC5)c4)n3)cc2N2CCC(C)(CO)CC2)cc1 | -1.00
24) CC(C)(O)[C@H]1CC[C@@H](Nc2cc(Nc3ccnc(-c4cnn(S(=O)(=O)C5CC5)c4)n3)ncc2C#Cc2ccc(CN3CCOCC3)cc2)CC1 | 1.44
25) C[C@]1(O)CC[C@@H](Nc2cc(Nc3ccnc(-c4cnn(S(=O)(=O)C5CC5)c4)n3)ncc2C#Cc2ccc(CN3CCOCC3)cc2)CC1 | 0.79
